Test system: MILI (PIWIL2) piRISC loaded with piRNA #1 (26 nt);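 further: 1 nM active piRISC with 0.1 nM target library at 33 °C single turnover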
Experiment Description: pre-steady-state target cleavage rate (min^-1); guide: piRNA #1 5'p-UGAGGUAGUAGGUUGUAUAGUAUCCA; MIWI and MILI are mouse PIWI proteins and EfPiwi is from a freshwater sponge; tags in brackets are library labels; higher = faster piRNA-guided slicing of the target
Cond: auxiliary factor: 500 nM mouse GTSF1
# Lookup of reported pre-steady-state target cleavage rate keyed by entry
Parameter Measured: pre-steady-state target cleavage rate

| Seq Text | Parameter Measured | Endpoint Value |
| --- | --- | --- |
| GGAGACCUAUCUAUACAACGUACUAGCUCA | pre-steady-state target cleavage rate | 0.00553 |
| GGAGACCUUUGUAUACAACCUACUACCUCA | pre-steady-state target cleavage rate | 0.0347 |
| GGAGUGGAUACUAUACAACCAUCUACCUCA | pre-steady-state target cleavage rate | 0.00432 |
| GGAGAGGAUACUAUACAACCUACUUCCUCA | pre-steady-state target cleavage rate | 0.0124 |
| GGAGACCUUAGUAUACAACCUACUAGCUCA | pre-steady-state target cleavage rate | 0.00944 |
| GGAGACCAUACUAUACAACCUACUACCUAA | pre-steady-state target cleavage rate | 0.139 |
| GGAGACCAAACUAUACAACCUACUACCUCA | pre-steady-state target cleavage rate | 0.131 |
| GGAGACCUUACUAUACAACGUACUACGUCA | pre-steady-state target cleavage rate | 0.00879 |
| GGAGACCAUUCUAUACAACCUACUACGUCA | pre-steady-state target cleavage rate | 0.0404 |
| GGAGUGGAUACUAUACAACUACUACCUCA | pre-steady-state target cleavage rate | 0.0608 |
| GGAGACCUAUGAAUACAUCCUACUACGUCA | pre-steady-state target cleavage rate | 0.00336 |
| GGAGACCUAUGUAUACAACCUACCUACCUCA | pre-steady-state target cleavage rate | 0.0358 |
| GGAGAGGAUACUAUUCAACCUACAACCUCA | pre-steady-state target cleavage rate | 0.0909 |
| GGAGACCUUACAAUUCAACCUACUACCUCA | pre-steady-state target cleavage rate | 0.102 |
| GGAGACGAUACUAUACAACCUACUACCUCCA | pre-steady-state target cleavage rate | 0.214 |
| GGAGACCUAUCUAUACUACCUACUACCUCA | pre-steady-state target cleavage rate | 0.0815 |
| GGAGACGAUACUUUACAACCUAGUACCUCA | pre-steady-state target cleavage rate | 0.0601 |
| GGAGACCUAUCUAUACAACCUAUUACCUCA | pre-steady-state target cleavage rate | 0.0974 |
| GGAGACCUAACAUUACAACCUACUACCUCA | pre-steady-state target cleavage rate | 0.0283 |
| GGAGUGGAUACUAUACAACCACUACCUCA | pre-steady-state target cleavage rate | 0.00753 |
| GGAGACCUUACUAUUCAACCUACUAGCUCA | pre-steady-state target cleavage rate | 0.0771 |
| GGAGACCAUACUAUACAACGUACUACGUCA | pre-steady-state target cleavage rate | 0.0148 |
| GGAGACCUAACUAUACAACCUCCUACCUCA | pre-steady-state target cleavage rate | 0.0273 |
| GGAGAGGUUACUAUACUACCUACUACCUCA | pre-steady-state target cleavage rate | 0.151 |
| GGAGUGGAUACAAAACAACCUACUACCUCA | pre-steady-state target cleavage rate | 0.12 |
| GGAGACCAUACUUUACAACCUUCUACCUCA | pre-steady-state target cleavage rate | 0.0105 |
| GGAGACCUAUGUUUACAACCUUCUACCUCA | pre-steady-state target cleavage rate | 0.00358 |
| GGAGACGAAUCUAUACAACCUACUACCUCA | pre-steady-state target cleavage rate | 0.146 |
| GGAGACCUAUGAAUACAACCUACUACCUUCA | pre-steady-state target cleavage rate | 0.00676 |
| GGAGACCUAUCUAUACAAGCAACUACCUCA | pre-steady-state target cleavage rate | 0.00953 |
| GGAGACCUAACUCAUACAACCUACUACCUCA | pre-steady-state target cleavage rate | 0.0742 |
| GGAGACCUAACUAUACAACCUACUUACCUCA | pre-steady-state target cleavage rate | 0.135 |
| GGAGACCAUACUUUACAACCUACUUCCUCA | pre-steady-state target cleavage rate | 0.0695 |
| GGAGACCUAUGAUAACAACCUACUACCUCU [g2:g16:cont:t1U] | pre-steady-state target cleavage rate | 0.00588 |
| GGAGACGAUACUUUAGAACCUACUACCUCA | pre-steady-state target cleavage rate | 0.16 |
| GGAGACCUAUGUAUACAAGCUACUUCCUCA | pre-steady-state target cleavage rate | 0.101 |
| GGAGACCUUACUAUACAACCUACUACGUCA | pre-steady-state target cleavage rate | 0.0741 |
| GGAGAGGAUUCAAUACAACCUACUACCUCA | pre-steady-state target cleavage rate | 0.132 |
| GGAGACCUAUGAAUACGACCUACUACCUCA | pre-steady-state target cleavage rate | 0.00583 |
| GGAGACCUAUGAUUACAACCUACUACACUCA | pre-steady-state target cleavage rate | 0.00616 |
| GGAGAGCAUACUAUACAACCUACUACCUCA | pre-steady-state target cleavage rate | 0.188 |
| GGAGUGGAUACUAUACAACCUAUACCUCA | pre-steady-state target cleavage rate | 0.0048 |
| GGAGACCAUACUAUUACAACCUACUACCUCA | pre-steady-state target cleavage rate | 0.161 |
| GGAGACGAUACUAUACAACCUACUUCCACA | pre-steady-state target cleavage rate | 0.0194 |
| GGAGACCUAUGAUAUGAACCUACUUACCUCA | pre-steady-state target cleavage rate | < 0.0001 |
| GGAGUGGAUACUAUACAACCUACCACCUCA | pre-steady-state target cleavage rate | 0.0748 |
| GGAGACCUUACUACUACAACCUACUACCUCA | pre-steady-state target cleavage rate | 0.107 |
| GGAGACCUAACUAUAGAACCUACUACCUGA | pre-steady-state target cleavage rate | 0.0124 |
